target: BRD2 BD1 (Homo sapiens (Human), UniProt P25440); test: FP competitive binding assay using Cpd. No. 350 as the probe; conditions: read-out: BRD2 BD1 Ki; FP, Cpd. No. 350 probe […]
Sequence (P25440 74-180): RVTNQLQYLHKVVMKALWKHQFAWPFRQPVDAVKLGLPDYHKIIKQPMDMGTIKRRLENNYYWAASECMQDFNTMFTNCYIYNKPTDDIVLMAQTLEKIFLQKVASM
The following molecules are listed with their measured pKi values.
Please report pKi as the negative decimal logarithm of the molar concentration, giving only the number.

Can you share its pKi? I mean this molecule: `COc1cc2c(cc1-c1c(C)noc1C)[nH]c1nc(C)nc(-c3ccc(C(=O)NC4CCN(C5COC5)CC4)c4ccccc34)c12`
8.21

Can you share its pKi? I mean this molecule: `COc1cc2c(cc1-c1c(C)noc1C)[nH]c1nc(C)nc(-c3cc(C(=O)NC4CCN(C)CC4)[nH]c3C(C)C)c12`
8.24

Can you share its pKi? I mean this molecule: `CCc1noc(C)c1-c1cc2[nH]c3ccnc(Cl)c3c2cc1OC`
5.77

Further cases:
Can you share its pKi? I mean this molecule: `COc1cc2c(cc1-c1c(C)noc1C)[nH]c1nc(C)nc(-c3cc(C(=O)NC4CCN(C5CCOCC5)CC4)[nH]c3C(C)C)c12`
8.24

Can you share its pKi? I mean this molecule: `COc1cc2c(cc1-c1c(C)noc1C)[nH]c1nc(C)nc(-c3ccc(C(=O)N4CCN(C)CC4)c4ccccc34)c12`
8.28

Can you share its pKi? I mean this molecule: `COc1cc2c(cc1-c1c(C)noc1C)[nH]c1ccnc(-c3cn[nH]c3)c12`
6.86

Can you share its pKi? I mean this molecule: `COc1cc2c(cc1-c1c(C)noc1C)[nH]c1nc(C)nc(-c3ccnc4ccccc34)c12`
7.81

---

test system: prostate VCaP cell line; assay: Cell growth inhibition, Cell TiterGLO, 4 days; type: cell-based; details: Homo sapiens, VCaP, 96 h, treated 4 days, read-out: VCaP cells (IC50 (nM))
Endpoint name: IC50
# do not omit the unit; it follows the number

I'm curious: which IC50 was measured for COc1cc2c(cc1-c1c(C)noc1C)ncc1[nH]c(=O)n([C@H](C)c3ccccn3)c12 [I-BET151, reference compound] tested on prostate VCaP cell line?
862 nM

I'm curious: which IC50 was measured for `CCc1n[nH]c(CC)c1-c1nccc2[nH]c3cc(-c4c(C)noc4C)c(OC)cc3c12` tested on prostate VCaP cell line?
117 nM

I'm curious: which IC50 was measured for `COc1cc2c(cc1-c1c(C)noc1C)[nH]c1nc(C)nc(-c3ccnc4ccc(Cl)cc34)c12` tested on prostate VCaP cell line?
20 nM

I'm curious: which IC50 was measured for `COc1cc2c(cc1-c1c(C)noc1C)[nH]c1nc(C)nc(-c3c(C)[nH]c4ccccc34)c12` tested on prostate VCaP cell line?
148 nM

I'm curious: which IC50 was measured for `COc1cc2c(cc1-c1c(C)noc1C)[nH]c1nc(C)nc(-c3ccnc4ccccc34)c12` tested on prostate VCaP cell line?
156 nM

Further cases:
I'm curious: which IC50 was measured for CCNC(=O)C[C@@H]1N=C(c2ccc(Cl)cc2)c2cc(OC)ccc2-n2c(C)nnc21 [I-BET762, reference compound] tested on prostate VCaP cell line?
500 nM

I'm curious: which IC50 was measured for `COc1cc2c(cc1-c1c(C)noc1C)[nH]c1nc(C)nc(-c3cc(NCCN(C)C)nc4ccccc34)c12` tested on prostate VCaP cell line?
25 nM

---

molecular target: BRD4 BD1 (Homo sapiens (Human), UniProt O60885); assay: FP competitive binding assay using Cpd. No. 350 as the probe; details: read-out: BRD4 BD1 Ki; FP, Cpd. No. 350 probe […]
Endpoint name: pKi
Please report pKi as the negative decimal logarithm of the molar concentration, giving only the number.

Can you share its pKi? I mean this compound: `COc1cc2c(cc1-c1c(C)noc1C)[nH]c1ccnc(-c3cn[nH]c3)c12`
6.61

Can you share its pKi? I mean this compound: `COc1cc2c(cc1-c1c(C)noc1C)[nH]c1nc(C)nc(-c3cc(C(=O)NC4CCN(C5COC5)CC4)[nH]c3C(C)C)c12`
7.68

Can you share its pKi? I mean this compound: `CCc1onc(C)c1-c1cc2[nH]c3ccnc(Cl)c3c2cc1OC`
5.55

Can you share its pKi? I mean this compound: `COc1cc2c(cc1-c1c(C)noc1C)[nH]c1nc(C)nc(-c3ccc(C(=O)N4CCN(C)CC4)c4ccccc34)c12`
7.83

Can you share its pKi? I mean this compound: `COc1cc2c(cc1-c1c(C)noc1C)[nH]c1nc(C)nc(-c3ccc(C(=O)NC4CCN(C)CC4)c4ccccc34)c12`
7.91

Further cases:
Can you share its pKi? I mean this compound: `COc1cc2c(cc1-c1c(C)noc1C)[nH]c1nc(C)nc(-c3ccnc4ccccc34)c12`
7.45

Can you share its pKi? I mean this compound: `COc1cc2c(cc1-c1c(C)noc1C)[nH]c1nc(C)nc(-c3cc(C(=O)NC4CCN(C5CCOCC5)CC4)[nH]c3C(C)C)c12`
7.77

Can you share its pKi? I mean this compound: `COc1cc2c(cc1-c1c(C)nn(C)c1C)[nH]c1ccnc(Cl)c12`
5.31

---

The following molecules are listed with their measured pKi values.
target: BRD2 BD1 (Homo sapiens (Human)); experiment: FP competitive binding assay using Cpd. No. 350 as the probe; settings: read-out: BRD2 BD1 Ki; FP, Cpd. No. 350 probe […]
Please report pKi as the negative decimal logarithm of the molar concentration, giving only the number.

Known results for molecules:
I'm curious: which pKi was measured for COc1cc2c(cc1-c1c(C)nn(C)c1C)[nH]c1ccnc(Cl)c12 [RX-27] tested on BRD2 BD1 (Homo sapiens (Human))?
5.26

I'm curious: which pKi was measured for CCc1onc(C)c1-c1cc2[nH]c3ccnc(Cl)c3c2cc1OC [RX-38] tested on BRD2 BD1 (Homo sapiens (Human))?
6.12

Further cases:
I'm curious: which pKi was measured for COc1cc2c(cc1-c1c(C)noc1C)[nH]c1ccncc12 [RX-7] tested on BRD2 BD1 (Homo sapiens (Human))?
6.19

---

target: BRD3 BD1 (Homo sapiens (Human)); assay: FP protein saturation experiment with probe Cpd. No. 350; format: binding; details: probe 1.5 nM
Sequence (Q15059 34-140): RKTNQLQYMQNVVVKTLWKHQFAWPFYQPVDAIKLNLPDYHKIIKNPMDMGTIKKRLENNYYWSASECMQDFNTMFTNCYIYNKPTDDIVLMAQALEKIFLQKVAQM
Endpoint name: Kd

I'm curious: which Kd was measured for `COc1cc2c(cc1-c1c(C)noc1C)[nH]c1nc(C(=O)NC3CCN(CCCNC(=O)c4ccc(-c5c6ccc(=O)cc-6oc6cc(O)ccc56)c(C(=O)O)c4)CC3)nc(-c3ccnc4ccc(F)cc34)c12` tested on BRD3 BD1 (Homo sapiens (Human))?
6.5 nM

---

biological target: BRD4 BD2 (Homo sapiens (Human)); assay: FP competitive binding assay (BRD-1F probe); settings: BRD-1F probe, calculated from IC50
Just a reminder that ties go to rule not met: only Ki strictly below 200 nM counts as rule met.

Quick check: does `COc1cc2c(cc1-c1c(C)noc1C)[nH]c1ccnc(-c3ccccc3)c12` have Ki under 200 nM?
rule met

Further cases:
Quick check: does `COc1cc2c(cc1-c1c(C)noc1C)[nH]c1ccnc(-c3cccnc3)c12` have Ki under 200 nM?
rule not met

Quick check: does `COc1cc2c(cc1-c1c(C)noc1C)[nH]c1ccnc(-c3cn[nH]c3)c12` have Ki under 200 nM?
rule met

Quick check: does COc1cc2c(cc1-c1c(C)noc1C)[nH]c1ccncc12 [RX-7] have Ki under 200 nM?
rule not met

Quick check: does COc1cc2c(cc1-c1c(C)n[nH]c1C)[nH]c1ccnc(-c3c(C)n[nH]c3C)c12 [Cpd. No. 34] have Ki under 200 nM?
rule not met

---

target: BRD4 BD2 (Homo sapiens (Human)); experiment: FP competitive binding assay using Cpd. No. 350 as the probe
The following molecules are listed with their measured Ki values.
Give the quantity in nM, number only.

Can you share its Ki? I mean this molecule: CCc1n[nH]c(CC)c1-c1nccc2[nH]c3cc(-c4c(C)noc4C)c(OC)cc3c12 [Cpd. No. 23]
12.2

Can you share its Ki? I mean this molecule: COc1cc2c(cc1-c1c(C)noc1C)[nH]c1ccnc(-c3c(C4CC4)n[nH]c3C)c12 [Cpd. No. 24]
134

---

target: BRD4 BD2 (Homo sapiens (Human)); test: FP protein saturation experiment with probe Cpd. No. 350; assay type: binding; conditions: probe 1.5 nM
Endpoint name: pKd
Please report pKd as the negative decimal logarithm of the molar concentration, giving only the number.

Can you share its pKd? I mean this molecule: COc1cc2c(cc1-c1c(C)noc1C)[nH]c1nc(C(=O)NC3CCN(CCCNC(=O)c4ccc(-c5c6ccc(=O)cc-6oc6cc(O)ccc56)c(C(=O)O)c4)CC3)nc(-c3ccnc4ccc(F)cc34)c12 [Cpd. No. 350]
8.52

---

target: BRD3 BD2 (Homo sapiens (Human), UniProt Q15059); assay: OctetRED biolayer interferometry (BLI) binding assay; conditions: BLI; read-out: Kd (nM) BRD3 BD2
Sequence (Q15059 306-415): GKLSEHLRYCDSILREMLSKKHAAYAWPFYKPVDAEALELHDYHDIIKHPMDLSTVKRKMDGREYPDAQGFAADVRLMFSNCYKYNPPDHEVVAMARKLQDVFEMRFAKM
Endpoint name: Kd (nM)
Give the quantity in nM, number only.

Can you share its Kd? I mean this compound: `COc1cc2c(cc1-c1c(C)noc1C)[nH]c1ncnc(-c3c(C)[nH]c4ccccc34)c12`
10.6
